- measured target: acetylcholinesterase (AChE, from Electrophorus electricus) (Electrophorus electricus, UniProt O42275)
- Sequence (O42275 24-633): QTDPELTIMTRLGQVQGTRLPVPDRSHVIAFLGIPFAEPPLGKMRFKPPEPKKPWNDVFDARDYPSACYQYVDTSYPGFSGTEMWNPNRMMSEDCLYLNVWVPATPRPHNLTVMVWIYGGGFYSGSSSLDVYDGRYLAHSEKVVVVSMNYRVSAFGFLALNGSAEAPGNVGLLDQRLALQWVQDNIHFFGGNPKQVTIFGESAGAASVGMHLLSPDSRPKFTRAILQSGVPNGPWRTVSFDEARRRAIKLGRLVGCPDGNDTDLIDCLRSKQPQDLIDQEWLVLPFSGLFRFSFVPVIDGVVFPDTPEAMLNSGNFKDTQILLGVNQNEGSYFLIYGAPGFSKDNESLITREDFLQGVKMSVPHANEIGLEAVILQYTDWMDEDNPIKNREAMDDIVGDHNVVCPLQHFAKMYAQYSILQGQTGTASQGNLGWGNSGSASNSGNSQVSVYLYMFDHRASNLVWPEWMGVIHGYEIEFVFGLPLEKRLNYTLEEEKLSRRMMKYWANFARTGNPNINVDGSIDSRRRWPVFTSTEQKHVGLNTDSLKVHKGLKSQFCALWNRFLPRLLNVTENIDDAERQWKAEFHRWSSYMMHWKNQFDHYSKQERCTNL
reported metric: Ki (µM)
Provide only the numeric value, understood in µM.

Looking up CCCCCCCCCCCCO[C@@H]1[C@H]2OC(C)(C)O[C@H]2O[C@@H]1COc1ccnc(OC[C@H]2O[C@@H]3OC(C)(C)O[C@@H]3[C@H]2OCCCCCCCCCCCC)n1 [Compound 9] , I found its Ki recorded as 17.5
